# Method: Metabolic stability in human liver microsomes
# Format: in vitro ADME
# Experimental Context: both sexes, pH 7.4; human liver microsomes; elimination constant; * approximate due to high stability; read-out: kel (converted)
Label rule, in plain words: k el at 2 µM of 0.0003 s⁻¹ and up is T, under 0.0003 s⁻¹ is F.

molecule="O=C(NC1CCN(CCCCC2(C(=O)NCC(F)(F)F)c3ccccc3-c3ccccc32)CC1)[C@@H]1[C@@H]2CC[C@@]1(c1ccc(C(F)(F)F)cc1)C2 (relative stereo) [Compound 34]" label=T
molecule="O=C(N[C@@H]1[C@@H]2CC[C@@]1(c1ccc(Cl)cc1)C2)c1cccnc1Cl (relative stereo) [Compound 30]" label=F
molecule="O=C(NC1CCN(CCCCC2(C(=O)NCC(F)(F)F)c3ccccc3-c3ccccc32)CC1)[C@@H]1[C@H]2C[C@]1(c1ccc(C(F)(F)F)cc1)CO2 (relative stereo) [Compound 35]" label=T
molecule="Cn1cc(C(=O)N[C@@H]2[C@@H]3CC[C@@]2(c2cc(F)c(F)c(F)c2)C3)c(C(F)F)n1 (relative stereo) [Compound 28]" label=F
molecule="Cn1cc(C(=O)N[C@@H]2[C@H]3C[C@]2(c2cc(F)c(F)c(F)c2)CO3)c(C(F)F)n1 (relative stereo) [Compound 29]" label=F

Proceed to the following item.
Asked: Is it the case that O=C(NC1CCN(CCCCC2(C(=O)NCC(F)(F)F)c3ccccc3-c3ccccc32)CC1)c1ccccc1-c1ccc(C(F)(F)F)cc1 [Lomitapide, reference compound] has k el at 2 µM reaching or exceeding 0.0003 s⁻¹?
Given back: T
